Provenance of the data: ChEMBL document CHEMBL1201862

Tested on: HCT-116
ASSAY COMMENT: NCI tumour cell line growth inhibition, 48 h
Calls of active or inactive are those of the source. No stated cut-off is given here; in the data, active = GI50 up to about 1.1 µM and inactive = higher.
MEASURE NAME: GI50

* Cc1ccc(C(=O)NN=C(/N=N/c2cccc(C)c2)c2ccc(N(C)C)cc2)cc1 | > 100 µM (inactive)
* O=C1C(Cl)=C(OCCCCl)C(=O)c2c(O)ccc(O)c21 | 1.85 µM (inactive)
* O=C(NNC(=O)c1ccccc1O)c1cccc(Br)c1 | 24.1 µM (inactive)
* COC(=O)/C=C1\C(CO[Si](C)(C)C(C)(C)C)OC(n2cc(C)c(=O)n(C)c2=O)C1O[Si](C)(C)C(C)(C)C (configuration not stated) | 71.4 µM (inactive)
* COc1cc(C(C)O)c[n+](CCc2c[nH]c3ccccc23)c1 (configuration not stated) | > 100 µM (inactive)
* N=c1oc2ccc(Cl)cc2cc1C(=O)NCc1ccccc1 | > 100 µM (inactive)
* O=C(Nc1ccccc1F)c1cc2ccc(O)cc2o/c1=N\c1ccccc1F | 2.06 µM (inactive)

* * *

System: OVCAR-3
ASSAY COMMENT: NCI tumour cell line growth inhibition, 48 h
Activity calls are given as the source filed them. Rule as the data show it: active = GI50 up to about 1.1 µM and inactive = higher.
Classes used: active, inactive

• CCC1(O)CC(OC2CC(N(C)C)C(OC3CC(O)C(OC4OC(C)C(=O)C=C4N)C(C)O3)C(C)O2)c2c(O)c3c(c(O)c2C1C(=O)OC)C(=O)c1cccc(O)c1C3=O (configuration not stated) = active
• CSc1nc(Nc2ccccc2Cl)c2c(N)nn(C)c2n1 = inactive
• CC1=NN(C(=O)c2ccccc2O)C(=O)/C1=C/c1c(O)ccc2ccccc12 = active
• Cc1ccccc1NC(=O)C(=O)CC(=O)c1c(C)[n+]([O-])c2ccccc2[n+]1[O-] = inactive
• COc1ccc2c(c1)C(=O)Cc1ccccc1CC2 = inactive
• O=[N+]([O-])c1cccc2nccc(NCC(O)CO)c12 (configuration not stated) = inactive
• CC(C)(C)[Si](C)(C)OCC1OC(n2cc(F)c(=O)[nH]c2=O)CC1O[Si](C)(C)C(C)(C)C (configuration not stated) = inactive
• N#Cc1c(NC(=S)NC(=O)c2ccccc2)nc2c(c1-c1ccccc1)CCCC2 = inactive
• CC(=O)/C(=C\c1ccccc1O)C(=O)Nc1ccccc1C = inactive
• Cc1nc2ccccc2c(=O)n1/N=C(\N=N\c1ccccc1)c1ccccc1Cl = inactive
• O=C1CCCCC2N(C(c3ccccc3)c3ccccc3)CC[C@@]12c1ccccc1.O=C1CCCC[C@H]2N(C(c3ccccc3)c3ccccc3)CC[C@@]12c1ccccc1 (some centres not stated) = inactive
• CCc1[nH]nc(C(N)=O)c1/N=N/N(C)C = inactive
• Cc1ccc(N2C(=O)C(Cl)=C(Cl)C2=O)cc1 = inactive
• Cn1nc(-c2ccccc2NC(=O)C(F)(F)F)c(=O)n(C)c1=S = inactive
• CN1CC[C@]2(C)c3c(O)cccc3CC3CCCC1C32C (some centres not stated) = inactive
• Cc1ccc(NC(=O)/C(=N/N(C)C)C(C2OC(=O)c3ccccc32)[N+](=O)[O-])cc1 (configuration not stated) = inactive
• C(=C\c1ccco1)/c1cccc(/C=C/c2ccco2)n1 = inactive
• CC1(Br)C(=O)NC(=O)N([C@H]2C[C@H](O)[C@@H](CO)O2)C1N=[N+]=[N-] (some centres not stated) = inactive
• Cc1c(Cl)c(=O)oc2cc(OCC(=O)c3ccccc3)ccc12 = inactive
• COc1nc2c(c(=O)n1C)NC(C(O)C(O)CO)C=N2 (configuration not stated) = inactive
• CC1=NOC2(C1)C(=O)Nc1ccccc12 (configuration not stated) = inactive
• CC(CNCCCNCCNCCCNCO)[N+](=O)[O-] (configuration not stated) = inactive
• Cc1cc(NC(=O)NC(=O)c2ccccc2[N+](=O)[O-])ccc1Oc1ncc(Cl)cn1 = active
• CCCCCCCCCCCC(=O)c1c(O)cc(C)oc1=O = inactive
• Cc1ccc(C(=O)NN=C(/N=N/c2cccc(C)c2)c2ccc(N(C)C)cc2)cc1 = inactive
• OC(O)(C(F)(F)F)C(F)(F)F = inactive
• CC(=O)n1c2c(c(=O)n1-c1ccccc1)[S+]([O-])CCC2 (configuration not stated) = inactive
• CSCCC(NC(=O)OCc1ccccc1)P(=O)(O)c1ccccc1 (configuration not stated) = inactive
• COc1ccc2ccccc2c1C1OC(=O)c2ccccc21 (configuration not stated) = inactive
• COc1cc2c(cc1O)[C@H](C)C(c1ccc(OC)c(OC)c1)O2 (some centres not stated) = inactive
• c1ccc2c(c1)CC1COc3ccccc3C1O2 (configuration not stated) = inactive
• CC(C(=O)NCCNC(=O)CCCC(=O)N(C)O)C(=O)NCCNC(=O)CCCC(=O)N(C)O = inactive

* * *

In this section we review reported GI50 values for a set of compounds.
System: T47D
ASSAY COMMENT: NCI tumour cell line growth inhibition, 48 h
Active and inactive are the calls of the source. No stated cut-off is given here; in the data, active = GI50 up to about 1.1 µM and inactive = higher.
MEASURE NAME: GI50

* CCN(CC)C(=O)N[C@@H](Cc1ccccc1)C(=O)NC | > 100 µM (inactive)
* O=P1(N(CCCl)CCCl)NCCCO1 (configuration not stated) [CYCLOPHOSPHAMIDE ANHYDROUS] | > 88.7 µM (inactive)
* O=[N+]([O-])c1cccc2nccc(NCC(O)CO)c12 (configuration not stated) | 24.2 µM (inactive)
* COC(=O)[C@@H]1C[C@@]2(C3C=CN(C(=O)C(F)(F)F)C=C3)c3ccccc3N(C(=O)C(F)(F)F)[C@H]2N1C(=O)OC | 46.7 µM (inactive)
* O=C1CCC2c3ccccc3NCN12 (configuration not stated) | > 100 µM (inactive)
* O=C1CC2(CCCc3sccc32)C(=O)N1 (configuration not stated) | > 100 µM (inactive)
* COc1ccc(C2c3cc4c(cc3OC(NCCO)C2C)OCO4)cc1 (configuration not stated) | 30.3 µM (inactive)

* * *

System: MDA-MB-435
ASSAY COMMENT: NCI tumour cell line growth inhibition, 48 h
The source made the active and inactive calls. Rule as the data show it: active = GI50 up to about 1.1 µM and inactive = higher. Where a SMILES comes first, the peptide text is derived from it. The star is where a group is joined. Cbz = O=C(OCc1ccccc1)*
MEASURE NAME: GI50

* COC(=O)C1(O)C(c2ccccc2)NC2(C)CCCC21 (configuration not stated) | > 100 µM (inactive)
* COc1ccc(Cl)cc1NC(=O)c1cccc([N+](=O)[O-])c1O | 14.4 µM (inactive)
* COc1nc2c(c(=O)n1C)NC(C(O)C(O)CO)C=N2 (configuration not stated) | > 10 µM (inactive)
* CC1(C)CC(=O)C2=C(C1)NC(SCC(=O)O)=C(C#N)C2c1ccc(Br)cc1 (configuration not stated) | > 100 µM (inactive)
* CCC(=O)OCN1C(=O)C=CC1=O | 15.2 µM (inactive)
* C=C1C(=O)O[C@H]2[C@H]1CC(=O)/C(C)=C/CC[C@@]1(C)O[C@@H]21 | 1.53 µM (inactive)
* O=C1/C(=C/c2cccnc2)C(n2cccc2)c2c(Br)sc(Br)c21 (configuration not stated) | 1.73 µM (inactive)
* N#CC(=S)Nc1ccc(Cl)c(Cl)c1 | 27 µM (inactive)
* c1ccc2c(c1)CC1COc3ccccc3C1O2 (configuration not stated) | 47.4 µM (inactive)
* O=[N+]([O-])c1cccc2nccc(NCC(O)CO)c12 (configuration not stated) | 16.6 µM (inactive)
* N#C/C=C1\C=CC(O)C(O)C1OC1OC(CO)C(O)C(O)C1O (configuration not stated) | > 100 µM (inactive)
* CCOC(=O)c1cc(-c2ccc([N+](=O)[O-])cc2)c([N+](=O)[O-])[nH]1 | 2.75 µM (inactive)
* COC(=O)/C=C(\C)C(=O)N(C)c1ccccc1I | > 100 µM (inactive)
* CCCCC(=C=C1CCCCC1O)C1CCCN1C(=O)OC(C)(C)C (configuration not stated) | 16.9 µM (inactive)
* O=c1oc2cc(/N=C/c3ccc4c(c3)OCO4)ccc2c2ccccc12 | > 100 µM (inactive)
* COc1cccc2c1C(=O)c1c(O)c3c(c(O)c1C2=O)C[C@@](O)(C(=O)CO)C[C@@H]3OC1CC2C(OCN3CN2COC2C(C)OC(O[C@H]4C[C@](O)(C(=O)CO)Cc5c(O)c6c(c(O)c54)C(=O)c4c(OC)cccc4C6=O)CC23)C(C)O1 (some centres not stated) | 0.0891 µM (active)
* NC(=O)Nc1c(Cl)cc(S(N)(=O)=O)cc1Cl | > 100 µM (inactive)
* N=C(N)c1ccc(/N=N\c2c(O)ccc3cc4c(/N=N\c5ccc(C(=N)N)cc5)c(O)ccc4cc23)cc1 | > 100 µM (inactive)
* CCOC(=O)CCC(NC(=O)CNC(=O)CNC(=O)C(CCC(=O)OCC)NC(=O)C(CCC(=O)OCC)NC(=O)C(CCC(=O)OCC)NC(=O)OCc1ccccc1)C(=O)NC(CCC(=O)OCC)C(=O)NC(CCC(=O)OCC)C(=O)OCC (configuration not stated) (Cbz-E(OEt)E(OEt)E(OEt)GGE(OEt)E(OEt)E(OEt)-OEt; configuration not given here) | > 75 µM (inactive)
* CN(C)c1ccc(C2CC(=O)CC(c3ccc(N(C)C)cc3)C23C(=O)NC(=O)NC3=O)cc1 (configuration not stated) | > 25 µM (inactive)
* CC(=O)OC(/C=C/c1ccccc1)=C(OC(C)C)/C1=C(\c2ccccc2)SCCCSC1=O | > 100 µM (inactive)
* CCc1[nH]nc(C(N)=O)c1/N=N/N(C)C | 64.6 µM (inactive)
* CC(C)(C)c1cc(C(=O)C2Cc3ccccc3C(=O)O2)cc(C(C)(C)C)c1O (configuration not stated) | 10.7 µM (inactive)
* O/N=C1\CSc2ccccc2C1 | > 100 µM (inactive)
* COc1ccc(-c2c(C#N)c(O)n(NS(=O)(=O)c3ccc(C)cc3)c(=O)c2C#N)cc1 | 75 µM (inactive)
* Cc1nn(C)c2c1C(=O)N(C)CC(=O)N2C | > 100 µM (inactive)
* CC1(C)Oc2ccc3c(=O)c4ccccc4oc3c2C1C(=O)O (configuration not stated) | > 100 µM (inactive)
* CCOC(=O)c1cn(-c2ccccc2)c(=S)n2c1nc1ccccc12 | 32.5 µM (inactive)
* Cc1ccc(S(=O)(=O)n2c3c(c4ccccc42)CCN2C[C@H]([C@H](C)Br)CC[C@@H]32)cc1 | 32.1 µM (inactive)
* Cc1ccc(NC(=O)/C(=N/N(C)C)C(C2OC(=O)c3ccccc32)[N+](=O)[O-])cc1 (configuration not stated) | > 100 µM (inactive)
* CC(C)CC(N)C(=O)NC(CNC(CCC(N)=O)C(=O)NC(CC(C)C)C(=O)NC(CC(C)C)C(=O)O)Cc1ccc2ccccc2c1 (configuration not stated) | > 10 µM (inactive)
* O=C1/C(=C\c2cccc(Oc3ccccc3)c2)SC(c2ccccc2)N1c1ccccc1Cl (configuration not stated) | 23.3 µM (inactive)
